# method.notes: qHTS of pediatric cancer cell lines to identify multiple opportunities for drug repurposing: Primary screen for Saos-2 cells (AID 1347097); note: nearly all actives have a fitted effect of over 40% in size
# experimental.conditions: Saos-2 viability, CellTiter-Glo ATP luminescence, 48 h; series mostly up to 46 µM
Inconclusive results are not listed. Activity calls are given as the source filed them. Calls come from the whole dose curve; as a rule, active = well fitted cell-killing curve with a large enough effect; inconclusive = small, poorly fitted or top-dose-only effect; inactive = no such curve, though single readings can be large or run the other way.
Possible outcomes: y (active), n (inactive)

1) NCc1c[nH]c(=S)n1[C@H]1CCc2c(F)cc(F)cc2C1
y
2) NS(=O)(=O)c1cc(Cl)c(Cl)c(S(N)(=O)=O)c1
n
3) COc1ccc(-c2ccc3ncc4c(c3c2)n(-c2ccc(N3CCNCC3)c(C(F)(F)F)c2)c(=O)n4C)cn1
y
4) COC(=O)Nc1ccc(-c2nc(N3CCOCC3)c3cnn(C4CCN(C(=O)OC)CC4)c3n2)cc1
y
5) CCNC(=O)CCCC=CC[C@@H]1[C@H](C=CC(O)CCc2ccccc2)[C@@H](O)C[C@@H]1O (stereo partly drawn)
n
6) Oc1cc(O)cc(C=Cc2ccc(O)c(O)c2)c1
y
7) c1cc(OCCN2CCCCC2)cc(-c2n[nH]c3ccc(-c4ncn[nH]4)cc23)c1
n
8) Oc1ccc(C=Cc2cc(O)cc(O)c2)cc1
y
9) COc1cc2nc(-c3cc(F)ccc3O)nc(N[C@@H]3CNC[C@@H]3C(C)(C)O)c2cc1OC
y
10) CN(C)N=Nc1nc[nH]c1C(N)=O
n
11) CNC(=O)c1cc(COc2nnc(Nc3ccc(Cl)cc3)c3ccoc23)ccn1
y
12) Cc1cc2c(cc1C1(c3ccc(C(=O)O)cn3)CC1)C(C)(C)CCC2(C)C
n
13) CON(C)C(=O)N1N=C(c2cc(F)ccc2F)S[C@]1(CCCN)c1ccccc1
y
14) COC(=O)N1CCN(Cc2cccc(NC(=O)Nc3ccc(C)nc3)c2F)CC1
n
15) COc1cc2c(cc1OC)CC(=O)N(CCCN(C)C[C@H]1Cc3cc(OC)c(OC)cc31)CC2
n
16) CCOC(=O)[C@H](CCc1ccccc1)N[C@@H](C)C(=O)N1CCCC1C(=O)O (stereo partly drawn)
n
17) N#CC(c1ccc(Cl)cc1)c1c(Cl)cc(-n2ncc(=O)[nH]c2=O)cc1Cl (stereo not drawn)
y
18) COc1c(C)cnc(Cn2cnc3c(Cl)nc(N)nc32)c1C
n
19) O=C1Nc2ccc(I)cc2C1=Cc1cc(Br)c(O)c(Br)c1
n
20) CN1CCc2c(n(Cc3ccc(C(=O)NO)cc3)c3ccccc23)C1
n
21) CC[C@H](C)n1cc(C)c2c(C(=O)NCc3c(C)cc(C)[nH]c3=O)cc(-c3ccc(N4CCNCC4)nc3)cc21
y
22) CCCCOCCOc1nc(-c2ccc(C(=O)O)c(F)c2)sc1C
n
23) CC1(C)OC2CC3C4CC(F)C5=CC(=O)C=CC5(C)C4C(O)CC3(C)[C@]2(C(=O)CO)O1 (stereo partly drawn)
n
24) O=c1[nH]c(=O)n([C@H]2C[C@@H](O)[C@@H](CO)O2)cc1C(F)(F)F
n
25) C[C@H]1[C@H](O)O[C@@H]2O[C@@]3(C)CC[C@@H]4[C@H](C)CC[C@@H]1[C@@]24OO3
y
26) COc1ccc(-c2cc(=O)c3c(O)cc(O[C@@H]4O[C@H](CO[C@@H]5O[C@@H](C)[C@H](O)[C@@H](O)[C@@H]5O)[C@@H](O)[C@H](O)[C@@H]4O)cc3o2)cc1O
n
27) Cc1ccccc1C(C(=O)NC1CCCCC1)N(C(=O)CNc1ccc(C#N)cc1)c1cccc(F)c1 (stereo not drawn)
y
28) COc1cc2ncnc(Nc3cc(Br)c(O)c(Br)c3)c2cc1OC
y
29) Nc1ncnc2c1c(-c1cccc(OCc3ccccc3)c1)cn2C1CC(CN2CCC2)C1 (stereo not drawn)
y
30) CN1CCN(c2cccc(Nc3nc4c(-c5ccc(S(C)(=O)=O)cc5)cccn4n3)c2)CC1
y
31) O=C(O)Cc1cccc(OCCCN(Cc2cccc(C(F)(F)F)c2Cl)CC(c2ccccc2)c2ccccc2)c1
n
32) O=C(c1ccc(C(=O)N2CCC(N3CCCC3)CC2)c(Nc2ccccc2)c1)N1CCC(N2CCCC2)CC1
n
33) Cc1cc(OCCCS(C)(=O)=O)cc(C)c1-c1cccc(COc2ccc3c(c2)OC[C@H]3CC(=O)O)c1
y
34) CCCCn1c(=O)n(Cc2ccccc2F)c(=O)c2[nH]c(Cc3ccc(NC(C)=O)cc3)nc21
n
35) CC(C)C[C@@H](N)[C@H](O)C(=O)N[C@H](C(=O)N[C@H](C(=O)N[C@@H](CC(=O)O)C(=O)O)C(C)C)C(C)C
n
36) CN(C)CCN(Cc1ccc(Cl)cc1)c1ccccn1
n
37) Cc1nc2c([nH]1)CCN(C(=O)c1ccc(NC(=O)c3ccccc3-c3ccccc3)cc1)c1ccccc1-2
n
38) O=C(Nc1cccc(Cl)c1)Nc1ncc(CCNc2ncnc3ccsc23)s1
y

* * *

# method.notes: qHTS of pediatric cancer cell lines to identify multiple opportunities for drug repurposing: Primary screen for Saos-2 cells (AID 1347097); note: nearly all actives have a fitted effect of over 40% in size
# experimental.conditions: Saos-2 viability, CellTiter-Glo ATP luminescence, 48 h; series mostly up to 46 µM
Records with an inconclusive call do not appear. Activity calls are given as the source filed them. Calls follow the shape of the dose curve; as a rule, active = well fitted cell-killing curve with a large enough effect; inconclusive = small, poorly fitted or top-dose-only effect; inactive = no such curve, though single readings can be large or run the other way.
Possible outcomes: active, inactive

1) N#Cc1ccc(Oc2ccc3c(c2)COB3O)cc1
inactive
2) Nc1ncnc2c1ncn2[C@@H]1O[C@H](CO)[C@@H](O)[C@@H]1O
active
3) O=S(=O)(NCCNCC=Cc1ccc(Br)cc1)c1cccc2cnccc12
active
4) COc1ccc2cc1Oc1ccc(cc1)C[C@H]1c3cc(c(OC)cc3CCN1C)Oc1c(OC)c(OC)cc3c1[C@H](C2)N(C)CC3
active
5) Nc1ccc(-c2ccc3ncc4ccc(=O)n(-c5cccc(C(F)(F)F)c5)c4c3c2)cn1
active
6) O=C(Nc1ccc(OC(F)(F)F)cc1)c1sccc1NCc1ccnc2ccccc12
active
7) C=CC[N+]1([C@H]2C[C@H]3[C@@H]4CC[C@H]5C[C@H](O)[C@@H](N6CCOCC6)C[C@]5(C)[C@@H]4CC[C@]3(C)[C@H]2OC(C)=O)CCCC1
inactive
8) Cc1ccc(NC(=O)Nc2cc(C(F)(F)F)ccc2F)cc1Nc1ccc2c(c1)NC(=O)C2=Cc1ccc[nH]1
active
9) CCCCN(CCCC)CC(O)c1cc(Cl)cc2c1-c1ccc(Cl)cc1C2=Cc1ccc(Cl)cc1 (centres undefined)
inactive

* * *

# method.notes: qHTS of pediatric cancer cell lines to identify multiple opportunities for drug repurposing: Primary screen for Rh41 cells (AID 1347108); note: nearly all actives have a fitted effect of over 70% in size
# experimental.conditions: Rh41 rhabdomyosarcoma viability, CellTiter-Glo luminescence, 48 h; series mostly up to 46 µM
Results filed as inconclusive are left out. Activity calls are given as the source filed them. Calls follow the shape of the dose curve; as a rule, active = well fitted cell-killing curve with a large enough effect; inconclusive = small, poorly fitted or top-dose-only effect; inactive = no such curve, though single readings can be large or run the other way.
Possible outcomes: Yes (active), No (inactive)

1. C[C@@H]1O[C@@H](O[C@H]2CC[C@@]3(C)[C@H](CC[C@@H]4[C@H]3C[C@@H](O)[C@]3(C)[C@@H](C5=CC(=O)OC5)CC[C@]43O)C2)C[C@H](O)[C@@H]1O[C@H]1C[C@H](O)[C@H](O[C@H]2C[C@H](O)[C@@H](O)[C@@H](C)O2)[C@H](C)O1 (stereo in doubt)
Yes
2. CN[C@@H](C)[C@H]1[C@H](O)C[C@@]2(C)[C@@H]3CC[C@H]4C(C)(C)[C@@H](NC)CC[C@@]45C[C@@]35CC[C@]12C
No
3. CSc1cccc(Nc2ncc3cc(-c4c(Cl)cccc4Cl)c(=O)n(C)c3n2)c1
Yes
4. COC(=O)Nc1ccc(-c2nc(N3CCOCC3)c3cnn(C4CCN(C(=O)OC)CC4)c3n2)cc1
Yes
5. CN(C)CC[C@H](CSc1ccccc1)Nc1ccc(S(=O)(=O)NC(=O)c2ccc(N3CCN(Cc4ccccc4-c4ccc(Cl)cc4)CC3)cc2)cc1[N+](=O)[O-]
Yes
6. C[C@@]1(C(=O)Nc2ccc(F)nc2)CCCN1c1nc(Nc2cc(C3CC3)[nH]n2)c2cccn2n1
Yes
7. COc1cccc(OC)c1-c1cc(C(=O)NC2(C(=O)O)C3CC4CC(C3)CC2C4)nn1-c1ccnc2cc(Cl)ccc12 (configuration not stated)
No
8. CCC=CC[C@H]1C(=O)CC[C@@H]1CC(=O)OC
No
9. COc1nc(C)cnc1NS(=O)(=O)c1cccnc1-c1ccc(-c2nnco2)cc1
No
10. CC(C)N(CCCNC(=O)Nc1ccc(C(C)(C)C)cc1)C[C@H]1O[C@@H](n2cc(Br)c3c(N)ncnc32)[C@H](O)[C@H]1O
Yes
11. CN1CCC(COc2cnc(-c3cccc(Cn4nc(-c5cccc(C#N)c5)ccc4=O)c3)nc2)CC1
Yes
12. Cc1nc2c([nH]1)CCN(C(=O)c1ccc(NC(=O)c3ccccc3-c3ccccc3)cc1)c1ccccc1-2
No
13. Cc1cc(CS(=O)(=O)c2ccccc2)cc(OCc2ccc(CN3CCC[C@H]3CO)cc2)c1
Yes
14. CCC(=O)OCC(=O)[C@@]1(OC(=O)CC)[C@@H](C)C[C@@H]2[C@H]3CCC4=CC(=O)C=C[C@]4(C)[C@@]3(F)[C@@H](O)C[C@@]21C
Yes
15. CC(C)=CCCC(C)=CCCC(C)=CCCC(C)=CCCC(C)=CCCC(C)=CCCC(C)=CCCC(C)=CCCC(C)=CCO
No
16. C=CCc1cccc(C=NNC(=O)CN2CCN(Cc3ccccc3)CC2)c1O
Yes
17. Cc1nc(C(=O)NCC(=O)O)c(O)c2ccc(Oc3ccccc3)cc12
No
18. COc1nccc(-c2c(-c3ccc(F)cc3)ncn2C2CCNCC2)n1
No
19. CC1C(=O)OC2C(O)C34C5CC(C(C)(C)C)C36C(OC(=O)C6O)OC4(C(=O)O5)C12O (configuration not stated)
No
20. CC(C)[C@H](O)C(=O)N[C@@H](C)C(=O)N[C@@H]1C(=O)N(C)CCc2ccccc21
No
21. CC1(C)C(N(O)C(=O)Nc2ccc(Cl)cc2)N(c2ccc(Cl)cc2)C(=O)N1CC(=O)NN=CC=Cc1ccc([N+](=O)[O-])o1 (configuration not stated)
Yes
22. NC(=O)c1noc([C@H](CCCC2CCCCC2)CC(=O)NO)n1
Yes
23. CCNC(=O)[C@H]1O[C@@H](n2cnc3c(N)nc(NCCc4ccc(CCC(=O)O)cc4)nc32)[C@H](O)[C@H]1O
No
24. Cn1c(=O)c(Oc2ccc(F)cc2F)cc2cnc(NC3CCOCC3)nc21
No
25. C[C@H]1[C@H](O)O[C@@H]2O[C@@]3(C)CC[C@@H]4[C@H](C)CC[C@@H]1[C@@]24OO3
No
26. c1ccc(-c2oc3ncnc(NC[C@@H]4CCCO4)c3c2-c2ccccc2)cc1
Yes
27. CC(=O)N1CCN(c2ccc(OCc3nn(C)c(C)c3-c3cccc4c(CCCOc5cc(C)c(Cl)c(C)c5)c(C(=O)O)n(Cc5cccnc5)c34)cc2)CC1
Yes
28. O=C(O)c1ccc(O)c2ncc(N3CCOCC3)cc12
Yes
29. O=c1[nH]c(=O)n([C@H]2C[C@@H](O)[C@@H](CO)O2)cc1I
No
30. CO[C@H]1/C=C\O[C@@]2(C)Oc3c(C)c(O)c4c(O)c(c5c(nc6cc(C)ccn65)c4c3C2=O)NC(=O)C(C)=CC=C[C@H](C)[C@H](O)[C@@H](C)[C@@H](O)[C@@H](C)[C@H](OC(C)=O)[C@H]1C
No
31. NS(=O)(=O)c1cc(Cl)c(Cl)c(S(N)(=O)=O)c1
No
32. CC1(C)[C@H]2CC[C@]3(C)[C@@H](C(=O)C=C4[C@@H]5C[C@@](C)(C(=O)O)CC[C@]5(C)CC[C@]43C)[C@@]2(C)CC[C@@H]1O
No
